Parameter hu:mu ratio: see the listing below.
Biological target: T1, His-tagged human B7-H3 (human, UniProt Q5ZPR3-2 29-245, limits assumed)
T1 construct: Bought His-tagged protein coated on the ELISA plate; also called hu B7-H3; CD276
T1 sequence (looked up): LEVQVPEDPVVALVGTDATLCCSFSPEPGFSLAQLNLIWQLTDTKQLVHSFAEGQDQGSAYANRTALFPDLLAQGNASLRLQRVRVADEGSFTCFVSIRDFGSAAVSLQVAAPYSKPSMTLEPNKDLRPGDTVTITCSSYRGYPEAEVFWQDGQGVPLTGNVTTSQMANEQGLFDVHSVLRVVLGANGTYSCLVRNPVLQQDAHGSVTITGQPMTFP
Assay: ELISA OD450 on hu B7-H3 over OD450 on mu B7-H3
Lab note: record just the number, no unit beside it.

1. 40633p1.1.A11 (scFv, V domains shown, Tested as scFv-Fc (Expi293 supernatant)) VH: EVQLLESGGDLVQPGGSLRLSCAASGFTFNTYWMNWVRQAPGKGLEWVAGINSKGGVTYYADSVKGRFTISRDNSKNTLYLQMNSLRAEDTAVYYCADWNDYDIMDVWGQGTTVTVSS VL: QSVLTQPPSASGTPGQTITISCSGSSSNVGRRTVNWYQQLPGTAPKLLIYTNAQRPSGVPDRFSGSKSGTSASLAISGLQSEDEADYYCATWDDSLNAWVFGGGTKLTVL
1.63
2. 40511p1.1.H5 (scFv, V domains shown, Tested as scFv-Fc (Expi293 supernatant)) VH: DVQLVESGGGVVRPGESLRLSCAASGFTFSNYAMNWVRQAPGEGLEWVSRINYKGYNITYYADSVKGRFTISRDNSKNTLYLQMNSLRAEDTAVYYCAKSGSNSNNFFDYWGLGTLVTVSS VL: EIVLTQSPGTLSLSPGERATLSCRASQSIRSDLAWYQQKPGQAPRLLIYGAASRATGIPARFSGSGSGTEFTLTISSLQSGDFAVYYCQQYNSWPPLTFGGGTKVEIK
2.25
3. 40633p1.2.E11 (scFv, V domains shown, Tested as scFv-Fc (Expi293 supernatant)) VH: EVQLLESGGGLVQPGGSLRLSCAASGFSFSNYDMSWVRQAPGKGLEWVAGIRSGSRTYYADSVKGRFTISRDNSKNTLYLQMNSLRAEDTATYYCGRYFNMDVWGQGTTVTVSS VL: QSVLTQPPSASGTPGQRVTISCSGSTFNIGTNLVHWYQQLPGTAPKLLIYLTDRRPPGVPDRFSGSKSGTSASLAISGLQSEDEANYYCATWDDSLNSFLFGGGTKLTVL
1.5
4. 40579p1.F7 (scFv, V domains shown, Tested as scFv-Fc (Expi293 supernatant)) VH: EVQLLESGGGLVQPGGSLRLSCAASGFTFSDYYMSWVRQAPGKGLEWVSGISISYGGNAYYADSVKGRFTVSRDNSKNTLYLQMNSLRAEDTAVYYCGRDRSPYQYRSMDVWGQGTTVTVSS VL: EIVLTQSPGTLSLSPGERATLTCRASQSVGDFLAWYQQKPGQAPRLLIYGASTRAAGIPARFRGSGSGTDFTLTISSLQSEDFAVYYCQQYKNWPPLTFGGGTKVEIK
1.32

Let's switch to this binder now.
[Q] Param item = 40633p1.2.A10 (scFv, V domains shown, Tested as scFv-Fc (Expi293 supernatant)) VH: EVQLLESGGGLVQPGGSLRLSCAASGFTVSYYGMSWVRQAPGKGLEWVSVIKQDGSEEYYADSVKGRFTISRDNSKNTLYLQMNSLRAEDTAVYYCARHWNDYSNGMNVWGQGTTVTVSS VL: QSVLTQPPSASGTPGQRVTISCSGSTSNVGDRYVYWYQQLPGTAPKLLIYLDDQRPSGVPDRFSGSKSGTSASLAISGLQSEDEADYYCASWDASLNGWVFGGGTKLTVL ; retrieve measured hu:mu ratio.
[A] 1.06
